PROCEDURE_SUMMARY: Alamar Blue cell viability (cytotoxicity) assay
Format: cell-based
TEST_SETTINGS: African green monkey, Vero E6 host cells
EXPERIMENTAL_READOUT: IC50 at 48 h (µM)
# unit: µM | format: bare number

Q: Quick one: IC50 at 48 h for CCN(CC)CCCC(C)Nc1ccnc2cc(Cl)ccc12 (stereo not shown) [Chloroquine] ?
Ans: 34
